Data origin: patent US11566007B2

target: KRAS G12D (Homo sapiens (Human), UniProt P01116+P62937, G12D); experiment: Ras-Raf (BRAF RBD) disruption / FRET / MOA assay, KRAS G12D; format: biochemical; conditions: Ras-Raf disruption/FRET/MOA assay; class symbols; read-out: KRAS G12D FRET data IC50
Sequence (P01116-2 other isoform, or with tags, fused parts or gaps G12D): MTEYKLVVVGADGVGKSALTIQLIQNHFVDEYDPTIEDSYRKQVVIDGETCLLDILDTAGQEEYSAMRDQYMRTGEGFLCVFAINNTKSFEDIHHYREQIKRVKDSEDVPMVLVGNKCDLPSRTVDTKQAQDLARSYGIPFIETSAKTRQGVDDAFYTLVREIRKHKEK
Sequence (P62937 whole entry): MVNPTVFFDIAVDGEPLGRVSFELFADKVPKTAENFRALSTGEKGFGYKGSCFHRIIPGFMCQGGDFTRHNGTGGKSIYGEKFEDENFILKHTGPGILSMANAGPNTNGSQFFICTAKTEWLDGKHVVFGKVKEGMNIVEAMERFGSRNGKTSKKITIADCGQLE
readout type: IC50

molecule	readout type	observed result
CCn1c(-c2cccnc2[C@H](C)OC)c2c3cc(ccc31)-c1cccc(c1)C[C@H](NC(=O)[C@H](C(C)C)N1CC[C@]3(CCN(C(=O)C#C[C@H]4COCCN4C)C3)C1=O)C(=O)N1CCC[C@H](N1)C(=O)OCC(C)(C)C2 (atropisomer, axis not shown) [Example A592]	IC50	> 10 µM
CCn1c(-c2cccnc2[C@H](C)OC)c2c3cc(ccc31)N1CCO[C@@H](C[C@H](NC(=O)[C@@H](COC3CCN(C(=O)C#CC(C)(C)N(C)C)CC3)C(C)C)C(=O)N3CCC[C@H](N3)C(=O)OCC(C)(C)C2)C1 (atropisomer, axis not shown) [Example A643]	IC50	> 10 µM
CCn1c(-c2cccnc2[C@H](C)OC)c2c3cc(ccc31)-c1cccc(c1)C[C@H](NC(=O)CCOC1CN(C(=O)C#CC(C)(C)N3CCC3)C1)C(=O)N1CCC[C@H](N1)C(=O)OCC(C)(C)C2 (atropisomer, axis not shown) [Example A478]	IC50	> 10 µM

Return reported IC50 values for all items listed beneath this line.
1. C=CC(=O)N1CCC[C@H]2CN(C(=O)N(C)[C@H](C(=O)N[C@H]3Cc4nc(cs4)-c4ccc5c(c4)c(c(-c4cccnc4[C@H](C)OC)n5CC)CC(C)(C)COC(=O)[C@@H]4CCCN(N4)C3=O)C(C)C)C[C@H]21 (atropisomer, axis not shown) [Example A618]
2. CCn1c(-c2cccnc2[C@H](C)OC)c2c3cc(ccc31)-c1cccc(c1)CC(NC(=O)[C@H](C(C)C)N1CC[C@]3(CCN(C(=O)C#C[C@@H]4COCCN4C4COC4)C3)C1=O)C(=O)N1CCC[C@H](N1)C(=O)OCC(C)(C)C2 (some centres unmarked) [Example A565]
3. C=CC(=O)N1C[C@H](C)[C@H](C(=O)N(C)[C@H](C(=O)N[C@H]2Cc3cc(O)cc(c3)-c3ccc4c(c3)c(c(-c3cccnc3COC)n4CC)CC(C)(C)COC(=O)[C@@H]3CCCN(N3)C2=O)C(C)C)C1 [Example A056]
4. C=CC(=O)N1CC(OC(=O)N(C)[C@H](C(=O)N[C@H]2Cc3cccc(c3)-c3ccc4c(c3)c(c(-c3cccnc3[C@H](C)OC)n4CC)CC(C)(C)COC(=O)[C@@H]3CCCN(N3)C2=O)C(C)C)C1 (atropisomer, axis not shown) [Example A445]
5. C=CC(=O)N(C)C1CN(C(=O)N(C)[C@H](C(=O)N[C@H]2Cc3nc(cs3)-c3ccc4c(c3)c(c(-c3cccnc3[C@H](C)OC)n4CC)CC(C)(C)COC(=O)[C@@H]3CCCN(N3)C2=O)C(C)C)C1 (atropisomer, axis not shown) [Example A463]

1: 1 to 10 µM; 2: > 10 µM; 3: 1 to 10 µM; 4: > 10 µM; 5: 1 to 10 µM

----------
Please go through the items and note down their pIC50.
biological target: KRAS G13D (Homo sapiens (Human), UniProt P01116+P62937, G13D); assay: Ras-Raf (BRAF RBD) disruption / FRET / MOA assay, KRAS G13D; format: biochemical; settings: read-out: IC50* KRAS G13D FRET data
Sequence (P01116-2 other isoform, or with tags, fused parts or gaps G13D, one chain of several): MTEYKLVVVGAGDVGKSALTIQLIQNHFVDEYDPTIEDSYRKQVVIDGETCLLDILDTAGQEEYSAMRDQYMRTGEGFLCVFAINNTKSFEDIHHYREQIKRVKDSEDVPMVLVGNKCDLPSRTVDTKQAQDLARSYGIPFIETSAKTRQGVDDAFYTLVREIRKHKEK
pIC50: −log10 of the molar value.

compound	pIC50
CCn1c(-c2cccnc2[C@H](C)OC)c2c3cc(ccc31)-c1cccc(c1)C[C@H](NC(=O)[C@H](C(C)C)N1CC[C@@]3(CCN(C(=O)C#CC(C)(C)N(C)C)C3)C1=O)C(=O)N1CCC[C@H](N1)C(=O)OCC(C)(C)C2 (atropisomer, axis not shown)	< 5.00

Kindly give each listed record's pIC50.
1. CCn1c(-c2cccnc2[C@H](C)OC)c2c3cc(ccc31)-c1cccc(c1)C[C@H](NC(=O)[C@H](C(C)C)N(C)C(=O)C1CCN(C(=O)C#C[C@@H]3CC(F)(F)CN3C)C1)C(=O)N1CCC[C@H](N1)C(=O)OCC(C)(C)C2 (stereo partly drawn)
2. C=CC(=O)N1CC[C@H](C(=O)N(C)[C@H](C(=O)N[C@H]2Cc3cc(O)cc(c3)-c3ccc4c(c3)c(c(-c3cc(CN(C)C)nn3C)n4CC)CC(C)(C)COC(=O)[C@@H]3CCCN(N3)C2=O)C(C)C)C1

1. < 5.00
2. < 5.00

State recorded pIC50 for all listed compounds.
1. C=CC(=O)N(C)CCC1CCN(C(=O)N(C)[C@H](C(=O)N[C@H]2Cc3nc(cs3)-c3ccc4c(c3)c(c(-c3cccnc3[C@H](C)OC)n4CC)CC(C)(C)COC(=O)[C@@H]3CCCN(N3)C2=O)C(C)C)CC1 (atropisomer, axis not shown)
2. C=CC(=O)N1CCN(C(=O)N(C)[C@H](C(=O)N[C@H]2Cc3nc(cs3)-c3ccc4c(c3)c(c(-c3cccnc3[C@H](C)OC)n4CC)CC(C)(C)COC(=O)[C@@H]3CCCN(N3)C2=O)C(C)C)CC1 (atropisomer, axis not shown)
3. CCn1c(-c2cccnc2[C@H](C)OC)c2c3cc(ccc31)-c1cc(O)cc(c1)C[C@H](NC(=O)[C@H](C(C)C)N(C)C(=O)c1ccc(NC(=O)/C=C/CN(C)C)nc1)C(=O)N1CCC[C@H](N1)C(=O)OCC(C)(C)C2 (atropisomer, axis not shown)
4. CCn1c(-c2cccnc2[C@H](C)OC)c2c3cc(ccc31)-c1cccc(c1)C[C@H](NC(=O)CCOC1CN(C(=O)C#CC(C)(C)N(C)C)C1)C(=O)N1CCC[C@H](N1)C(=O)OCC(C)(C)C2 (atropisomer, axis not shown)

1. 6.00 to 7.00
2. 6.00 to 7.00
3. 5.00 to 6.00
4. < 5.00

Would you be so kind as to report pIC50 for each listed record?
1. CCn1c(-c2cccnc2[C@H](C)OC)c2c3cc(ccc31)-c1cc(cc(C(F)F)c1)C[C@H](NC(=O)[C@H](C1CCCC1)N(C)C(=O)[C@H]1CCN(C(=O)C#CC(C)(C)N3CCC3)C1)C(=O)N1CCC[C@H](N1)C(=O)OCC(C)(C)C2 (atropisomer, axis not shown)
2. CCn1c(-c2cccnc2[C@H](C)OC)c2c3cc(ccc31)N1CCC[C@@H](C[C@H](NC(=O)[C@H](C(C)C)N(C)C(=O)C3(F)CCN(C(=O)C#CC(C)(C)N(C)C)CC3)C(=O)N3CCC[C@H](N3)C(=O)OCC(C)(C)C2)C1 (atropisomer, axis not shown) [Example A615]
3. C=CC(=O)N1CC[C@H](C(=O)N(C)[C@H](C(=O)N[C@H]2Cc3cc(O)cc(c3)-c3ccc4c(c3)c(c(-c3cc(C#N)cnc3COC)n4CC)CC(C)(C)COC(=O)[C@@H]3CCCN(N3)C2=O)C(C)C)C1
4. C=CC(=O)N1CC[C@H](C(=O)N(C)[C@H](C(=O)N[C@@H]2C(=O)N3CCC[C@H](N3)C(=O)OCC(C)(C)Cc3c(-c4cncnc4)n(CC)c4ccc(cc34)-c3cccc(c3)[C@H]2OC)C(C)C)C1
5. C=CC(=O)N1CC[C@H](C(=O)N(C)[C@H](C(=O)N[C@H]2CC3=NC=C(O3)c3ccc4c(c3)c(c(-c3cccnc3[C@H](C)OC)n4CC)CC(C)(C)COC(=O)[C@@H]3CCCN(N3)C2=O)C(C)C)C1 (atropisomer, axis not shown)
6. C=CC(=O)N1CC(N2CCN(C(=O)N(C)[C@H](C(=O)N[C@H]3Cc4nc(cs4)-c4ccc5c(c4)c(c(-c4cccnc4[C@H](C)OC)n5CC)CC(C)(C)COC(=O)[C@@H]4CCCN(N4)C3=O)C(C)C)CC2)C1 (atropisomer, axis not shown)
7. CCn1c(-c2cccnc2[C@H](C)OC)c2c3cc(ccc31)-c1cccc(c1)C[C@H](NC(=O)[C@H](C(C)C)N(C)C(=O)[C@H]1CCN(C(=O)C#C[C@]3(C)CCCN3C)C1)C(=O)N1CCC[C@H](N1)C(=O)OCC(C)(C)C2

1: 5.00 to 6.00; 2: < 5.00; 3: 6.00 to 7.00; 4: < 5.00; 5: 5.00 to 6.00; 6: 5.00 to 6.00; 7: < 5.00

Given the entry C=CC(=O)N1CCCN(C(=O)N(C)[C@H](C(=O)N[C@H]2Cc3nc(cs3)-c3ccc4c(c3)c(c(-c3cccnc3[C@H](C)OC)n4CC)CC(C)(C)COC(=O)[C@@H]3CCCN(N3)C2=O)C(C)C)CC1 (atropisomer, axis not shown) , report its measured pIC50.
6.00 to 7.00

----------
Field: pIC50. Provide a value for each of the compounds that follow.
biological target: KRAS G12S (Homo sapiens (Human), UniProt P01116+P62937, G12S); experiment: Ras-Raf (BRAF RBD) disruption / FRET / MOA assay, KRAS G12S; type: biochemical; settings: Ras-Raf disruption/FRET/MOA assay; class symbols; read-out: KRAS G12S FRET data IC50
Sequence (P01116-2 other isoform, or with tags, fused parts or gaps G12S, one chain of several): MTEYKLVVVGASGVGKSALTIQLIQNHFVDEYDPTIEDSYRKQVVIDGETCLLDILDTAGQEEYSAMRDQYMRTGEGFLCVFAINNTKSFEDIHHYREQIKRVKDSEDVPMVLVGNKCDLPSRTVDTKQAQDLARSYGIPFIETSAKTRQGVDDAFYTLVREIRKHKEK
pIC50: −log10 of the molar value.

Guide cases for pIC50, answers given:
compound	observed result
C=CC(=O)N1CCC2(C1)OCN([C@H](C(=O)N[C@H]1Cc3cccc(c3)-c3ccc4c(c3)c(c(-c3cccnc3[C@H](C)OC)n4CC)CC(C)(C)COC(=O)[C@@H]3CCCN(N3)C1=O)C(C)C)C2=O (stereo partly shown)	5.00 to 6.00
C=CC(=O)N1CCC2(CC1)CCN([C@H](C(=O)N[C@H]1Cc3cc(O)cc(c3)-c3ccc4c(c3)c(c(-c3ccccc3CCOC)n4CC)CC(C)(C)COC(=O)[C@@H]3CCCN(N3)C1=O)C(C)C)C2=O	< 5.00
C=CC(=O)N1CC[C@H](C(=O)N(C)[C@H](C(=O)N[C@H]2Cc3cc(O)cc(c3)-c3ccc4c(c3)c(c(C3=C(COC)COCC3)n4CC)CC(C)(C)COC(=O)[C@@H]3CCCN(N3)C2=O)C(C)C)C1	6.00 to 7.00

Switching to the query record.
Fill blank: measured pIC50 of the compound C=CC(=O)N1CCC2(CC1)CCN2C(=O)N(C)[C@H](C(=O)N[C@H]1Cc2nc(cs2)-c2ccc3c(c2)c(c(-c2cccnc2[C@H](C)OC)n3CC)CC(C)(C)COC(=O)[C@@H]2CCCN(N2)C1=O)C(C)C (atropisomer, axis not shown) is ____.
6.00 to 7.00
